Data provenance is PubChem BioAssay (Tox21).

test: A CellTox Green Cytotoxicity Assay to monitor cytotoxicity in HepG2 cells - 16 hour (AID 1224876); conditions: CellTox Green fluorescence; series mostly up to 76.8 µM; note: nearly all actives have a fitted effect of over 45% in size
Results filed as inconclusive are left out. The source made the active and inactive calls. Calls come from the whole dose curve; as a rule, active = well fitted activation curve with a large enough effect in the repeat runs; inconclusive = weak or mixed curves; inactive = flat fitted curve, though single readings scatter.
Outcomes you can answer with include only these: YES = active, NO = inactive

Please review the entries below; each comes with its answer.
C=CC(=O)OCC(Br)CBr (stereo unspecified) :: NO
Cc1ccc(C=O)cc1 :: NO
CCSCC :: NO
CC(=O)Nc1ccc(N=Nc2cc(C)ccc2O)cc1 :: NO
CCCCCCCCCC[N+](C)(CCCCCCCCCC)CCC[Si](OC)(OC)OC :: YES
CCC(=O)OC/C=C(\C)CCC=C(C)C :: NO
CN(C/C=C/c1ccccc1)Cc1cccc2ccccc12 :: YES
S=C1NC=NC2N=CNC12 (stereo unspecified) :: NO

Exercise: What outcome does the record of this test show for C[C@H]1O[C@@H](O[C@H]2CC[C@@]3(C)[C@H](CC[C@@H]4[C@@H]3C[C@@H](O)[C@]3(C)[C@@H](C5=CC(=O)OC5)CC[C@]43O)C2)C[C@H](O)[C@@H]1O[C@H]1C[C@H](O)[C@H](O[C@H]2C[C@H](O)[C@H](O[C@@H]3O[C@H](CO)[C@@H](O)[C@H](O)[C@H]3O)[C@@H](C)O2)[C@@H](C)O1 ?
Key: NO

Exercise: Could you do the same for Cc1ccc2sc3cccc(C)c3c2c1 , please?
Key: NO

Exercise: Could you do the same for CCc1cccc(C)c1N(C(=O)C(=O)O)C(C)COC (stereo unspecified) , please?
Key: NO

Exercise: Could you do the same for CC(C)c1ccc2sc3ccccc3c(=O)c2c1 , please?
Key: NO

Exercise: Could you do the same for C=Cc1ccc(O)c(OC)c1 , please?
Key: NO

Exercise: Could you do the same for CSc1ccc(O)cc1C , please?
Key: NO

Exercise: Could you do the same for N#Cc1ccc(C/C(=N/NC(=O)Nc2ccc(OC(F)(F)F)cc2)c2cccc(C(F)(F)F)c2)cc1 , please?
Key: NO

Exercise: Could you do the same for C=C1CC[C@H]2O[C@]2(C)CC[C@@H]2[C@@H]1CC2(C)C , please?
Key: NO

* * *

test: Caspase-3/7 induction in HepG2 cells by small molecules, qHTS assay (AID 1346978); settings: HepG2 caspase-3/7 activation, Caspase-Glo luminescence, 17 h; series mostly up to 92.4 µM; note: nearly all actives have a fitted effect of over 15% in size
Inconclusive results are not listed. Active and inactive are the calls of the source. The call rests on the fitted dose curve; in most records, active means well fitted activation curve with a large enough effect in the repeat runs; inconclusive means weak or mixed curves; inactive means flat fitted curve, though single readings scatter.
Outcomes you can answer with include only these: yes (active), no (inactive)

Please review the entries below; each comes with its answer.
Cc1ccc(S(=O)(=O)C(I)I)cc1 :: no
ClC(c1ccccc1)(c1ccccc1)c1ccccc1 :: no
O=C(Nc1ccc([N+](=O)[O-])cc1)Nc1ccc([N+](=O)[O-])cc1 (tested in a mixture with another compound) :: no

Exercise: What outcome does the record of this test show for CC(C=O)c1ccccc1 (stereo not drawn) ?
Key: no

Exercise: Could you do the same for CCCCCCCCCCCCCCCCC(C(=O)O)C(O)(CC(=O)O)C(=O)O (stereo not drawn) , please?
Key: no

Exercise: Could you do the same for CCCC(C)C=O (stereo not drawn) , please?
Key: no

Exercise: Could you do the same for c1ccc2c(c1)-c1ccc3ccc4cccc5cc-2c1c3c45 , please?
Key: no

Exercise: Could you do the same for CC/C=C(\C)C=O , please?
Key: no

Exercise: Could you do the same for C[C@H]1O[C@@H](O[C@H]2CC[C@@]3(C)[C@H](CC[C@@H]4[C@@H]3C[C@@H](O)[C@]3(C)[C@@H](C5=CC(=O)OC5)CC[C@]43O)C2)C[C@H](O)[C@@H]1O[C@H]1C[C@H](O)[C@H](O[C@H]2C[C@H](O)[C@H](O[C@@H]3O[C@H](CO)[C@@H](O)[C@H](O)[C@H]3O)[C@@H](C)O2)[C@@H](C)O1 , please?
Key: no

Exercise: Could you do the same for Oc1cccc2c(O)cccc12 , please?
Key: no

Exercise: Could you do the same for CCN(CC)c1ccc2c(c1)Oc1cc(N(CC)CC)ccc1C21OC(=O)c2ccccc21 , please?
Key: no

Exercise: Could you do the same for CCc1cccc(C)c1N(C(=O)C(=O)O)C(C)COC (stereo not drawn) , please?
Key: no

Exercise: Could you do the same for CCN(CC)c1ccc(C=O)c(O)c1 , please?
Key: no

Exercise: Could you do the same for CCCOC(=O)c1ccc(O)cc1 , please?
Key: no

Exercise: Could you do the same for c1ccc2occc2c1 , please?
Key: no

Exercise: Could you do the same for CN1CCN(C)CC1 , please?
Key: no
